test-method-notes: Cytotoxicity against human BC1 cells by sulforhodamine B assay
Format: functional, cell-based
observation-type: IC50 (µg/mL)
Please respond with the number in µg/mL and leave the unit unwritten.

# molecule, quantity-unit, IC50
records = [
    ("C=C[C@]1(C)Cc2c(OC(C)=O)ccc(OC(C)=O)c2C[C@@H]1C(=C)C", "µg/mL", 9.2),
    ("C=C[C@@]1(C)CC2=C(C[C@H]1C(=C)C)C(=O)C=CC2=O [Cordiachrome C]", "µg/mL", 1.8),
    ("C/C(C=O)=C\\CC/C(C)=C/Cc1cc(O)ccc1O [ALLIODORIN]", "µg/mL", 10.3),
    ("C=C1CCC[C@@]2(C)CC3=C(C[C@@H]12)C(=O)C=CC3=O [CORDIACHROME B]", "µg/mL", 6.4),
]

May I ask what IC50 has been recorded for Cc1c2ccncc2c(C)c2c1[nH]c1ccccc12 [ELLIPTECINE] ?
0.2

###

The entries below come with measured IC50 values attached.
System: Vero
test-method-notes: Cytotoxicity against african green monkey Vero cells by sulforhodamine B assay
Format: cell-based
measurement-context: Chlorocebus sabaeus

Sample records with IC50:
# compound, system-tested, result
rows = [
    ("C=C[C@]1(C)Cc2c(OC(=O)c3ccccc3)ccc(OC(=O)c3ccccc3)c2C[C@@H]1C(=C)C", "Vero", "> 50 mg/L"),
    ("CC(C)=CCCC1(C)C=Cc2cc(O)ccc2O1 (stereo not drawn)", "Vero", "> 50 mg/L"),
]

Turning now to a further record.
May I ask what IC50 has been recorded for C/C1=C/CC/C(C)=C/CC2=C(C1)C(=O)C=CC2=O ?
> 50 mg/L
